- experimental.system: Methyl-CpG-binding domain protein 2 (Homo sapiens)
- experiment.description: inhibitors of MBD2 binding to methylated DNA, primary screen, biochemical, TR-FRET, DNA-binding domain, human (AID 686964)
- settings: MBD2 binding to methylated oligonucleotide, at 4.4 µM, stronger effect = higher value
Hit rate of the full screen: of about 370,000 compounds, about 1,100 (0.3%) were called active. Many of the other results were omitted from the sample, so actives are more common in it than they were.
Listed here are compounds together with their documented inhibition.
Numeric only. Scale: %

>>> data_value("CCc1ccccc1NC(=O)CSc1nnc(-c2cccs2)o1")
2.5
>>> data_value("COc1ccc(-c2nnc(SCC(=O)c3ccc4c(c3)OCCO4)o2)cc1")
-3.62
>>> data_value("Cc1c(CC(=O)N2CCN(C(=O)C3COc4ccccc4O3)CC2)c(=O)oc2c(O)c(O)ccc12 (stereo not given)")
13.6

Query: Provide measured inhibition value, entry: COCCNC(=O)c1cc2c(Br)ccc(Br)c2nc1N
Response: 1.97

Where these numbers come from: PubChem BioAssay AID686964
